# Tested on: NCI/ADR-RES ovarian
# test method notes: NCI-60 one-dose screen, 48 h
# condition notes: 10 µM unless noted
This is part of a sample that, as a whole, favours compounds with a hit. Of some 83,000 tested, about 20% had one in any assay. Calls of active or inactive are those of the source. How the source made its calls: active means growth percent below 10; inactive means the rest.
Outcome codes: label 1 (active), label 0 (inactive)

[
  {
    "compound": "Nc1nc2ccccc2c2c1S(=O)(=O)c1ccc(Cl)cc1C2=O",
    "system under test": "NCI/ADR-RES ovarian",
    "classification": "label 0"
  },
  {
    "compound": "COC1=CC(c2ccc[nH]2)=N/C1=C\\c1[nH]c(C)c(C(=O)OC(C)C)c1C",
    "system under test": "NCI/ADR-RES ovarian",
    "classification": "label 1"
  },
  {
    "compound": "O=C(C[C@]1(O)C(=O)Nc2ccccc21)c1cccc(C(F)(F)F)c1",
    "system under test": "NCI/ADR-RES ovarian",
    "classification": "label 0"
  },
  {
    "compound": "Cc1cccc(/C=C2\\CN(C(=O)OC(C)(C)C)C/C(=C\\c3cccc(C)c3)C2=O)c1",
    "system under test": "NCI/ADR-RES ovarian",
    "classification": "label 0"
  },
  {
    "compound": "O=C(CN1C(=O)S/C(=C\\c2ccccc2)C1=O)Nc1ncc(Cc2ccccc2Cl)s1",
    "system under test": "NCI/ADR-RES ovarian",
    "classification": "label 0"
  },
  {
    "compound": "Clc1cc(Cl)c(Cl)c(-c2nnc(SCc3ccncc3Br)o2)c1",
    "system under test": "NCI/ADR-RES ovarian",
    "classification": "label 0"
  },
  {
    "compound": "COC(=O)[C@]12CCC(C)(C)C[C@H]1[C@H]1/C(=N/OCCc3nn[nH]n3)C[C@@H]3[C@@]4(C)CC[C@H](OC(C)=O)C(C)(C)[C@@H]4CC[C@@]3(C)[C@]1(C)CC2",
    "system under test": "NCI/ADR-RES ovarian",
    "classification": "label 0"
  },
  {
    "compound": "CCOC(=O)C1=C(c2ccccc2)N=C2SC=C(c3ccc(Cl)cc3)N2C1c1ccc(Cl)cc1 (stereo not given)",
    "system under test": "NCI/ADR-RES ovarian",
    "classification": "label 0"
  },
  {
    "compound": "Cc1cc(S(=O)(=O)/N=C(\\N)n2nc(C)c(C)c2C)c(SCc2ccccc2)cc1Cl",
    "system under test": "NCI/ADR-RES ovarian",
    "classification": "label 0"
  },
  {
    "compound": "COc1cc2c(c(OC)c1OC)CCC(c1cccc(C(=O)Nc3cccc(Cl)c3)c1)O2 (stereo not given)",
    "system under test": "NCI/ADR-RES ovarian",
    "classification": "label 0"
  },
  {
    "compound": "O=C1NC(=C(Cl)Cl)/C(=N\\S(=O)(=O)NCc2ccccc2)N1",
    "system under test": "NCI/ADR-RES ovarian",
    "classification": "label 0"
  },
  {
    "compound": "COc1ccc(CNc2c3ccccc3nc3ccccc23)cc1",
    "system under test": "NCI/ADR-RES ovarian",
    "classification": "label 0"
  },
  {
    "compound": "Cn1cc(-c2csc(-c3c[nH]c4ccc(Br)cc34)n2)c2ccnc(Cl)c21",
    "system under test": "NCI/ADR-RES ovarian",
    "classification": "label 0"
  },
  {
    "compound": "COc1ccc(/C=C/C(=O)c2ccc(Nc3ccnc4cc(Cl)ccc34)cc2)cc1",
    "system under test": "NCI/ADR-RES ovarian",
    "classification": "label 0"
  },
  {
    "compound": "C=CC(=O)N1CCN(c2cccc(Oc3nccc(Nc4nnc(-c5ccc(Br)cc5)s4)n3)c2)CC1",
    "system under test": "NCI/ADR-RES ovarian",
    "classification": "label 0"
  },
  {
    "compound": "O=C1c2c(c3c4ccccc4[nH]c3c3ccc4ccccc4c23)C(=O)N1CCN1CCOCC1",
    "system under test": "NCI/ADR-RES ovarian",
    "classification": "label 0"
  },
  {
    "compound": "COc1ccc(/C=C/C(=O)c2cc3c(N)c(C(=O)Nc4cccc5ccccc45)sc3nc2C)cc1",
    "system under test": "NCI/ADR-RES ovarian",
    "classification": "label 0"
  },
  {
    "compound": "CCC(=O)Oc1ccc(-c2ccccc2)cc1Br",
    "system under test": "NCI/ADR-RES ovarian",
    "classification": "label 0"
  },
  {
    "compound": "CCCCCCCCCCCCCCCCOCCCOP(=O)(O)C1CCCN(O)C1=O (stereo not given)",
    "system under test": "NCI/ADR-RES ovarian",
    "classification": "label 1"
  },
  {
    "compound": "CCOC(=O)c1cc(C(=O)c2cc(OC)c(OC)c(OC)c2)n2ncccc12",
    "system under test": "NCI/ADR-RES ovarian",
    "classification": "label 1"
  }
]
